# MEASUREMENT_TARGET: AChE from electric eel (EeAChE) (Electrophorus electricus)
# Construct: Acetylcholinesterase was obtained from electric eel (Electrophorus electricus L.); purchased Sigma-Aldrich (Prague, Czech Republic); host or cells: electric eel (natural source)
# Sequence (O42275 24-633): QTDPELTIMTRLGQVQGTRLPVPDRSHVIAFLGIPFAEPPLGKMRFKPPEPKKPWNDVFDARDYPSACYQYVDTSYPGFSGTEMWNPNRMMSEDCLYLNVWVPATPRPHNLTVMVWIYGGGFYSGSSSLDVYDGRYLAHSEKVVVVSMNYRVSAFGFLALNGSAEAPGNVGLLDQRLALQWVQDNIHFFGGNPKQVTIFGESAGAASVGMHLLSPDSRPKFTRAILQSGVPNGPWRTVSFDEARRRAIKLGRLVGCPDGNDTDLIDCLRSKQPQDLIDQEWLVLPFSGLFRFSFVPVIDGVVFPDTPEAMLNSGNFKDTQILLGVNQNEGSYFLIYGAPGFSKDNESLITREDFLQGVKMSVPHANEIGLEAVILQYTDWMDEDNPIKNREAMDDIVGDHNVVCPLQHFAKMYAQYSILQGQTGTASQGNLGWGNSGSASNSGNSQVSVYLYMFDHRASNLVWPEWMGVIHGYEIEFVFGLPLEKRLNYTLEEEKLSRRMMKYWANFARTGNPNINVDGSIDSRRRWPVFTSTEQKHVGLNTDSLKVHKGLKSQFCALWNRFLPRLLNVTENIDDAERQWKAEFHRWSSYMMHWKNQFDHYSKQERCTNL
# TEST_SUMMARY: Inhibition of AChE, modified Ellman's spectrophotometric method
# Type: biochemical, electric eel (Electrophorus electricus L.)
# TEST_CONDITIONS: mean ± SD, n = three experiments; read-out: IC50 (EeAChE)
Below: a set of entries, each annotated with reported IC50.
Only the number, expressed in µM, is required.

Consider the worked cases shown below.
>  <COMPOUND>
O=C1c2ccc(Cl)cc2OP(=S)(c2ccccc2)N1c1ccc(C(F)(F)F)cc1 (racemic)

>  <MEASUREMENT_TARGET>
AChE from electric eel (EeAChE) (Electrophorus electricus)

>  <UNIT_TEXT>
µM

>  <IC50>
63.5

$$$$
>  <COMPOUND>
O=C(Nc1ccccc1)c1ccccc1O [Compound 1, salicylanilide]

>  <MEASUREMENT_TARGET>
AChE from electric eel (EeAChE) (Electrophorus electricus)

>  <UNIT_TEXT>
µM

>  <IC50>
49.7

$$$$
>  <COMPOUND>
O=C(Nc1ccc(Cl)c(Cl)c1)c1cc(Br)ccc1O

>  <MEASUREMENT_TARGET>
AChE from electric eel (EeAChE) (Electrophorus electricus)

>  <UNIT_TEXT>
µM

>  <IC50>
60.8

$$$$
>  <COMPOUND>
O=C(Nc1cc(Cl)c(Cl)c(Cl)c1)c1cc(Br)ccc1O

>  <MEASUREMENT_TARGET>
AChE from electric eel (EeAChE) (Electrophorus electricus)

>  <UNIT_TEXT>
µM

>  <IC50>
42.1

$$$$

Shifting focus to the compound that follows.
So for O=C(Nc1ccc(Cl)c(Cl)c1)c1ccc(Cl)cc1O , the logged IC50 turned out to be 46.3
